TEST: Drug level in Wistar rat plasma at 3 mg/kg, ip measured after 15 mins by LC-MS/MS analysis
Format: ADME, organism-based
Please mark Satisfied if the recorded concentration at 0.25 h is equal to or greater than 400 nM, and Not satisfied if it falls below.

Worked set:
Is the recorded value of concentration at 0.25 h equal to or greater than 400 nM for this compound? `O=S(=O)(c1cncc2ccccc12)N1CCC[C@@H]1CCN1CCN(c2cccc3sccc23)CC1` Satisfied

Is the recorded value of concentration at 0.25 h equal to or greater than 400 nM for this compound? `O=S(=O)(c1cccc2cnccc12)N1CCC[C@@H]1CCN1CCN(c2nsc3ccccc23)CC1` Satisfied

Is the recorded value of concentration at 0.25 h equal to or greater than 400 nM for this compound? `O=S(=O)(c1cncc2ccccc12)N1CCC[C@H]1CCN1CCN(c2nsc3ccccc23)CC1` Not satisfied

Is the recorded value of concentration at 0.25 h equal to or greater than 400 nM for this compound? `O=S(=O)(c1cncc2ccccc12)N1CCC[C@@H]1CCN1CCN(c2nsc3ccccc23)CC1` Satisfied

Is the recorded value of concentration at 0.25 h equal to or greater than 400 nM for this compound? `O=S(=O)(c1cncc2ccccc12)N1CCC[C@H]1CCN1CCN(c2cccc3sccc23)CC1` Not satisfied

Now for another entry.
Is the recorded value of concentration at 0.25 h equal to or greater than 400 nM for this compound? `O=S(=O)(c1cccc2cnccc12)N1CCC[C@H]1CCN1CCN(c2nsc3ccccc23)CC1` Satisfied
